Test: Hematology assays in cynomolgus monkeys (Example 45)
Type: in vivo
Experimental Context: day −14
Measured Property: lymphocytes (%)
Give a bare numeral; the unit % is implied.

Substance | Measured Property | Unit String | Reported Result
ISIS 417002: MOE gapmer, nucleobases 1275 to 1318 of SEQ ID NO: 1 (Table 8) (antisense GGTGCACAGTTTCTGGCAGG; MOE gapmer, wing and gap sizes not given here) | lymphocytes | % | 53

Asked: Please look up its lymphocytes: ISIS 416858: MOE gapmer, nucleobases 1275 to 1318 of SEQ ID NO: 1 (Table 8) (antisense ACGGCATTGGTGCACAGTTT; MOE gapmer, wing and gap sizes not given here)
Given back: 58
